# EXPERIMENT: plasma concentration after single 5-mg oral dose in humans
# Assay type: in vivo
# RECORDED CONDITIONS: human, Subject 4, 3.8 hours post dose, read-out: GSK1034702 plasma concentration at start of post-dose PET scan

COMPOUND: Cc1cc(F)c2[nH]c(=O)n(C3CCN(C4CCOCC4)CC3)c2c1 [GSK1034702]
UNIT SPEC: ng/mL
concentration at 3.8 h: 10.4

###

# EXPERIMENT: [11C]GSK1034702 PET brain distribution and kinetics in healthy male humans
# Type: in vivo
# RECORDED CONDITIONS: human, white matter, intravenous, White matter, Subject 2 Scan 1 (baseline), read-out: V T
TEST READOUT: Kp

MOLECULE: [11CH3]c1cc(F)c2[nH]c(=O)n(C3CCN(C4CCOCC4)CC3)c2c1 [[^11C]GSK1034702]
REPORTED RESULT: 4.38

###

# EXPERIMENT: [11C]GSK1034702 PET brain distribution and kinetics in healthy male humans
# Format: in vivo
# RECORDED CONDITIONS: human, brain striatum, po, Striatum, Subject 4 Scan 2 (post dose, 5 mg oral), read-out: V T
TEST READOUT: Kp

MOLECULE: [11CH3]c1cc(F)c2[nH]c(=O)n(C3CCN(C4CCOCC4)CC3)c2c1 [[^11C]GSK1034702]
REPORTED RESULT: 4.93

###

# EXPERIMENT: [11C]GSK1034702 PET brain distribution and kinetics in healthy male humans
# Assay type: in vivo
# RECORDED CONDITIONS: human, thalamus, po, Thalamus, Subject 2 Scan 2 (post dose, 5 mg oral), read-out: V T

MOLECULE: [11CH3]c1cc(F)c2[nH]c(=O)n(C3CCN(C4CCOCC4)CC3)c2c1 [[^11C]GSK1034702]
Kp: 4.39

###

# EXPERIMENT: [11C]GSK1034702 PET brain distribution and kinetics in healthy male humans
# Type: in vivo
# RECORDED CONDITIONS: human, thalamus, po, Thalamus, Subject 4 Scan 2 (post dose, 5 mg oral), read-out: V T
TEST READOUT: Kp

COMPOUND: [11CH3]c1cc(F)c2[nH]c(=O)n(C3CCN(C4CCOCC4)CC3)c2c1 [[^11C]GSK1034702]
TEST READOUT: Kp
REPORTED RESULT: 5.11

###

# EXPERIMENT: [11C]GSK1034702 PET brain distribution and kinetics in healthy male humans
# Assay type: in vivo
# RECORDED CONDITIONS: human, cerebellum, intravenous, Cerebellum, Subject 2 Scan 1 (baseline), read-out: V T
TEST READOUT: Kp

MOLECULE: [11CH3]c1cc(F)c2[nH]c(=O)n(C3CCN(C4CCOCC4)CC3)c2c1 [[^11C]GSK1034702]
TEST READOUT: Kp
REPORTED RESULT: 4.75

###

# EXPERIMENT: [11C]GSK1034702 PET brain distribution and kinetics in healthy male humans
# Type: in vivo
# RECORDED CONDITIONS: human, medial temporal lobe (MTL), po, MTL, Subject 2 Scan 2 (post dose, 5 mg oral), read-out: V T

MOLECULE: [11CH3]c1cc(F)c2[nH]c(=O)n(C3CCN(C4CCOCC4)CC3)c2c1 [[^11C]GSK1034702]
Kp: 8.3

###

# EXPERIMENT: plasma protein binding by equilibrium dialysis, mouse
# Format: in vitro ADME
# RECORDED CONDITIONS: equilibrium dialysis 5 h, read-out: f P (plasma-free fraction)

MOLECULE: Cc1cc(F)c2[nH]c(=O)n(C3CCN(C4CCOCC4)CC3)c2c1
fraction unbound at 5 h, 1 μg/mL: 0.52

###

# EXPERIMENT: plasma protein binding by equilibrium dialysis, rat
# Format: in vitro ADME
# RECORDED CONDITIONS: Rat (CD, Sprague Dawley), equilibrium dialysis 5 h, mean ± SD, n = 6, read-out: Plasma protein binding (converted)

MOLECULE: Cc1cc(F)c2[nH]c(=O)n(C3CCN(C4CCOCC4)CC3)c2c1
fraction unbound at 5 h, 1 μg/mL: 0.528

###

# EXPERIMENT: [11C]GSK1034702 PET brain distribution and kinetics in healthy male humans
# Type: in vivo
# RECORDED CONDITIONS: male, human, white matter, intravenous, range over scans, read-out: VT in the white matter
TEST READOUT: Kp

COMPOUND: [11CH3]c1cc(F)c2[nH]c(=O)n(C3CCN(C4CCOCC4)CC3)c2c1 [[^11C]GSK1034702]
REPORTED RESULT: 4 to 5

###

# EXPERIMENT: brain tissue binding by equilibrium dialysis, rat
# Type: in vitro ADME
# RECORDED CONDITIONS: brain tissue, Rat (CD), equilibrium dialysis 5 h, read-out: f ND (brain-free fraction)
# Experimental: The in vitro brain and plasma protein binding of GSK1034702 across a range of species was determined using equilibrium dialysis as described previously.

MOLECULE: Cc1cc(F)c2[nH]c(=O)n(C3CCN(C4CCOCC4)CC3)c2c1 [GSK1034702]
fraction unbound at 5 h, 1 μg/mL: 0.12

###

# EXPERIMENT: plasma free fraction by ultrafiltration, baboon arterial plasma
# Assay type: in vitro ADME
# RECORDED CONDITIONS: baboon (Papio anubis), mean ± SD, read-out: free fraction in plasma (fP)

COMPOUND: Cc1cc(F)c2[nH]c(=O)n(C3CCN(C4CCOCC4)CC3)c2c1
fraction unbound at 20 min: 0.54

COMPOUND: [11CH3]c1cc(F)c2[nH]c(=O)n(C3CCN(C4CCOCC4)CC3)c2c1 [[^11C]GSK1034702]
fraction unbound at 20 min: 0.54

###

# EXPERIMENT: [11C]GSK1034702 PET brain distribution and kinetics in healthy male humans
# Type: in vivo
# RECORDED CONDITIONS: human, white matter, intravenous, White matter, Subject 1 Scan 1 (baseline), read-out: V T
TEST READOUT: Kp

MOLECULE: [11CH3]c1cc(F)c2[nH]c(=O)n(C3CCN(C4CCOCC4)CC3)c2c1 [[^11C]GSK1034702]
TEST READOUT: Kp
REPORTED RESULT: 4.63

###

# EXPERIMENT: [11C]GSK1034702 PET brain distribution and kinetics in anaesthetised baboons
# Format: in vivo, Papio anubis
# RECORDED CONDITIONS: female, baboon (Papio anubis), thalamus, intravenous, Thalamus; Subject A Exam 1; baboon; read-out: Regional V T

COMPOUND: [11CH3]c1cc(F)c2[nH]c(=O)n(C3CCN(C4CCOCC4)CC3)c2c1 [[^11C]GSK1034702]
Kp: 4.06

###

# EXPERIMENT: [11C]GSK1034702 PET brain distribution and kinetics in anaesthetised baboons
# Type: in vivo, Papio anubis
# RECORDED CONDITIONS: female, baboon (Papio anubis), striatum, intravenous, Striatum; Subject A Exam 2; baboon; read-out: Regional V T

COMPOUND: [11CH3]c1cc(F)c2[nH]c(=O)n(C3CCN(C4CCOCC4)CC3)c2c1 [[^11C]GSK1034702]
Kp: 3.95

###

# EXPERIMENT: [11C]GSK1034702 PET brain distribution and kinetics in anaesthetised baboons
# Assay type: in vivo, Papio anubis
# RECORDED CONDITIONS: female, baboon (Papio anubis), cerebellum, intravenous, Cerebellum; Subject A Exam 2; baboon; read-out: Regional V T

MOLECULE: [11CH3]c1cc(F)c2[nH]c(=O)n(C3CCN(C4CCOCC4)CC3)c2c1 [[^11C]GSK1034702]
Kp: 3.79

###

# EXPERIMENT: [11C]GSK1034702 PET brain distribution and kinetics in anaesthetised baboons
# Assay type: in vivo, Papio anubis
# RECORDED CONDITIONS: male, baboon (Papio anubis), frontal cortex, intravenous, Frontal Ctx; Subject B Exam 1; baboon; read-out: Regional V T
TEST READOUT: Kp

COMPOUND: [11CH3]c1cc(F)c2[nH]c(=O)n(C3CCN(C4CCOCC4)CC3)c2c1 [[^11C]GSK1034702]
TEST READOUT: Kp
REPORTED RESULT: 3.52

###

# EXPERIMENT: [11C]GSK1034702 PET brain distribution and kinetics in healthy male humans
# Assay type: in vivo
# RECORDED CONDITIONS: human, brain cortex, po, Cortex, Subject 2 Scan 2 (post dose, 5 mg oral), read-out: V T
TEST READOUT: Kp

MOLECULE: [11CH3]c1cc(F)c2[nH]c(=O)n(C3CCN(C4CCOCC4)CC3)c2c1 [[^11C]GSK1034702]
TEST READOUT: Kp
REPORTED RESULT: 4.03

The measured values listed here are drawn from paper PMC4452589.
